Assay: Pharmacokinetics study after IV and PO administration to SD rats
Assay type: in vivo
Settings: SD, rat, plasma, po, 20 mg/kg, SD rats, 20 mg·kg^−1 oral administration; read-out: mean AUC(0‐t)
outcome.measure: AUC (µg·h/mL)
Numbers only, in µg·h/mL.

Prompt: Entry COc1cc(OC)c(Cl)c(-c2ccc3c(/C=C/c4ccc(N(C)C(=O)CN5CCN(C)CC5)cc4)n[nH]c3c2)c1Cl has what AUC?
Completion: 1.38

* * *

Experiment: Pharmacokinetics study after IV and PO administration to SD rats
Type: in vivo
Conditions: Sprague-Dawley, rat, plasma, iv, 2 mg/kg, IV 2 mg/kg, 0.083 h; read-out: Mean plasma concentration
outcome.measure: concentration at 0.083 h (ng/mL)
Numbers only, in ng/mL.

Prompt: Entry COc1cc(OC)c(Cl)c(-c2ccc3c(/C=C/c4ccc(N(C)C(=O)CN5CCN(C)CC5)cc4)n[nH]c3c2)c1Cl [YTH‐60] has what concentration at 0.083 h?
Completion: 380

Reference for the values: paper PMC8249783
